Values from ChEMBL document CHEMBL1201862

# Test system: OVCAR-5
# experiment_description: NCI tumour cell line growth inhibition, 48 h
Calls of active or inactive are those of the source. Rule as the data show it: active = GI50 up to about 1.1 µM and inactive = higher.

{"compound": "CC(C)=CCC[C@](C)(O[C@@H]1O[C@H](CO)[C@@H](O)[C@H](O)[C@H]1O)[C@H]1CC[C@]2(C)[C@@H]1[C@H](O)C[C@@H]1[C@@]3(C)CC[C@H](O)C(C)(C)[C@@H]3[C@@H](O[C@@H]3O[C@H](CO)[C@@H](O)[C@H](O)[C@H]3O)C[C@]12C [GINSENOSIDE RG1]", "GI50": "> 100 µM (inactive)"}
{"compound": "CC(C)(C)[Si](C)(C)OCC1OC(n2cnc3c(NC(=O)c4ccccc4)ncnc32)CC1O (stereo unspecified)", "GI50": "36.7 µM (inactive)"}
{"compound": "O=c1oc2ccccc2c2nc3ccccc3cc12", "GI50": "> 100 µM (inactive)"}
{"compound": "CC(C)=CC[C@H]1C[C@]2(CC=C(C)C)C(=O)[C@@](CC=C(C)C)(C(=O)C(C(=O)c3ccccc3)=C2O)C1(C)C [6-EPI-CLUSIANONE]", "GI50": "4.98 µM (inactive)"}
{"compound": "CC(=O)OCC1OC(N2C(=O)NC(=O)C3C=C4CCCCC4=CC32)C(OC(C)=O)C1OC(C)=O (stereo unspecified)", "GI50": "> 100 µM (inactive)"}
{"compound": "O=C(/C=C/c1ccccc1)CSc1nc2ccc(I)cc2c(=O)n1Cc1ccccc1", "GI50": "> 100 µM (inactive)"}
